Provenance of the data: PubChem BioAssay AID1963829

Test system: 935938-334-R-J1-PDC complex spheroid viability
Assay: Anticancer human tumor 935938-334-R-J1-PDC patient-derived small intestine adenocarcinoma cell line growth inhibition [POLQ]
Details: second compound 0.1 µM; first compound 10 µM; active compounds read low
Experimental: Multicellular complex tumor spheroid response to Polymerase (POL) inhibitors (novobiocin, ART-558, RP6685) in combination with a variety of drugs and investigational agents in selected tumor cell lines The POL inhibitors (novobiocin, ART-558, and RP6685) were evaluated both individually and in combination with standard of care and investigational anticancer small molecules within a complex spheroid model of solid tumors. . […]
QUANTITY MEASURED: viability, T/C (%)
Respond with the bare value in %.

// solved cases for viability, T/C follow
{"columns": ["MOLECULE", "SYSTEM UNDER TEST", "viability, T/C / %"],
 "data": [
  ["C#Cc1c(F)ccc2cc(O)cc(-c3ncc4c(N5CC6CCC(C5)N6)nc(OCC56CCCN5CC(F)C6)nc4c3F)c12 (stereo unspecified) + Cc1cccc(N(C)C(=O)C2C(O)CCN2c2nc(C)cc(C(F)(F)F)c2C#N)c1", "935938-334-R-J1-PDC complex spheroid viability", 39.4],
  ["O=C(c1cc(Cc2n[nH]c(=O)c3ccccc23)ccc1F)N1CCN(C(=O)C2CC2)CC1 + Nc1ccc(C#CCN(C(=O)Cc2ncc(C(F)(F)F)cc2C(F)(F)F)c2ccc(F)cc2)nn1", "935938-334-R-J1-PDC complex spheroid viability", 60],
  ["CCCS(=O)(=O)Nc1ccc(F)c(C(=O)c2c[nH]c3ncc(-c4ccc(Cl)cc4)cc23)c1F + Cc1cccc(N(C)C(=O)C2C(O)CCN2c2nc(C)cc(C(F)(F)F)c2C#N)c1", "935938-334-R-J1-PDC complex spheroid viability", 45],
  ["COc1cccc2c1C(=O)c1c(O)c3c(c(O)c1C2=O)CC(O)(C(=O)CO)CC3OC1CC(N)C(O)C(C)O1 (stereo unspecified) + Nc1ccc(C#CCN(C(=O)Cc2ncc(C(F)(F)F)cc2C(F)(F)F)c2ccc(F)cc2)nn1", "935938-334-R-J1-PDC complex spheroid viability", 3.54],
  ["CC1COCCN1c1cc(-c2ccnn2C)c2ccnc(-c3ccn[nH]3)c2n1 (stereo unspecified) + Nc1ccc(C#CCN(C(=O)Cc2ncc(C(F)(F)F)cc2C(F)(F)F)c2ccc(F)cc2)nn1", "935938-334-R-J1-PDC complex spheroid viability", 19.4]
]}

# ---- query molecule ----
## Task Item CC1COCCN1c1cc(C2(S(C)(=N)=O)CC2)nc(-c2ccnc3[nH]ccc23)n1 (stereo unspecified) + Nc1ccc(C#CCN(C(=O)Cc2ncc(C(F)(F)F)cc2C(F)(F)F)c2ccc(F)cc2)nn1 : provide viability, T/C
## Result 16

---

tested on: 935938-334-R-J1-PDC complex spheroid viability; assay: Anticancer human tumor 935938-334-R-J1-PDC cell line growth inhibition [POLQ]; conditions: second compound 1 µM; first compound 0.316 µM; active compounds read low;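 note: spheroids exposed to drugs for seven days before viability read; 100% = DMSO vehicle control wells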
QUANTITY MEASURED: viability, T/C

{"columns": ["MOLECULE", "viability, T/C"],
 "data": [
  ["CCc1c2c(nc3ccc(O)cc13)-c1cc3c(c(=O)n1C2)COC(=O)[C@]3(O)CC + Cc1cccc(N(C)C(=O)C2C(O)CCN2c2nc(C)cc(C(F)(F)F)c2C#N)c1", "33.3%"],
  ["O=C(c1cc(Cc2n[nH]c(=O)c3ccccc23)ccc1F)N1CCN(C(=O)C2CC2)CC1 + Cc1cccc(N(C)C(=O)C2C(O)CCN2c2nc(C)cc(C(F)(F)F)c2C#N)c1", "135%"]
]}

Now, please, on to the next molecule.
## Task GET viability, T/C where system = 935938-334-R-J1-PDC complex spheroid viability and item = Nc1ccn(C2OC(CO)C(O)C2(F)F)c(=O)n1 (stereo not drawn) + Cc1cccc(N(C)C(=O)C2C(O)CCN2c2nc(C)cc(C(F)(F)F)c2C#N)c1
## Result 26.6%
